Attribution: PubChem BioAssay (NCI)

Tested on: UACC-257 melanoma
Experiment: NCI tumour cell line growth inhibition, 48 h
Quick list: TGI per entry.
Number in µM, nothing else.

CO/N=C(/C(=O)OC)c1ccccc1COc1cccc(C(F)(F)F)c1; 52.6
OCCNCCNc1c2ccccc2nc2oc3ccccc3c12; 33.2

Quick check: TGI of CC[C@](C)(O)C(=O)O[C@H]1C(=O)O[C@@H]2C[C@H]3C(C)=C[C@H](O)[C@@H](O)[C@]3(C)[C@H]3[C@@]4(O)OC[C@]32[C@@H]1[C@@H](C)[C@H]4O ?
149

How about O=C(CCCCCCC(=O)Nc1ccc2c(c1)/C(=C/c1ccc[nH]1)C(=O)N2)NO ?
5.44

How about Clc1ccc2c(c1)-c1ccccc1C1=NCCN12 ?
3.3

How about Nc1ccccc1OCc1cc(=O)c(OCc2ccccc2)co1 ?
81.7

----------
Quick list: TGI per entry.
Test system: LOX IMVI melanoma
Assay: NCI tumour cell line growth inhibition, 48 h

# example entries with known answers
CC1=Nn2c(nnc2-c2ccc(N)cc2)NC(C)(C)C1; > 100 µM
CC(=O)OCC1OC(n2c(C)c(C(C)=O)c(-c3cccc4ccccc34)c(C#N)c2=S)C(OC(C)=O)C(OC(C)=O)C1OC(C)=O (stereo unspecified); > 100 µM
CCCCCCCCCCCC[n+]1ccc(C(N)=O)cc1; 13.2 µM
O=C(CN1C(=O)c2ccccc2C1=O)C(O)CN1C(=O)c2ccccc2C1=O (stereo unspecified); > 100 µM

Quick check: TGI of O=C(CN1CCOCC1)Nc1ccc2c(c1)C1Oc3ccccc3CC1CO2 (stereo unspecified) ?
> 100 µM

How about Cc1ccc(/C(O)=C/c2nc3ccccc3[nH]c2=O)c(C)c1 ?
> 100 µM

How about COc1ccc(/C=C2\CN(C)CC3C2=NC(=S)NC3c2ccc(OC)cc2)cc1 (stereo unspecified) ?
> 100 µM

How about CC[C@](C)(O)C(=O)O[C@H]1C(=O)O[C@@H]2C[C@H]3C(C)=C[C@H](O)[C@@H](O)[C@]3(C)[C@H]3[C@@]4(O)OC[C@]32[C@@H]1[C@@H](C)[C@H]4O ?
68.4 µM

How about CC1OC(OC2C(O[C@@H]3C[C@@H]4CC[C@@H]5[C@H](CC[C@]6(C)C7C(C[C@@H]56)O[C@]5(CC[C@@H](C)CO5)[C@H]7C)[C@@]4(C)C[C@H]3O)OC(CO)C(O)C2O)C(O)C(O)C1O (stereo partly specified) ?
3.29 µM

How about O=C1C[C@H]2CC3(CC[C@H]2CN1)OCCO3 ?
> 100 µM

----------
Tested on: CAKI-1 renal
Test: NCI tumour cell line growth inhibition, 48 h; in the data active = GI50 below about 0.43 µM; inactive = the rest
Output constraint: value belongs to 1 (yes) for active, 0 (no) for inactive

Observe how each entry below is paired with its result.
OC(CNC1CCCC1)Cn1c2ccccc2c2ccccc21 (stereo not drawn); 0 (no)
COc1ccc(/C=C/C(=O)c2cc3c(N)c(C(=O)Nc4ccccc4)sc3nc2C)cc1; 1 (yes)
C=C1CC[C@@H]2[C@](C)(COC(C)=O)[C@H](OC(C)=O)CC[C@@]2(C)[C@@H]1C/C=C1/C(=O)OC[C@H]1OC(C)=O; 0 (no)
C=CC(=O)Nc1cccc(C)c1Nc1ncc2cc(-c3c(Cl)c(OC)cc(OC)c3Cl)ccc2n1; 0 (no)
N#CC1=C(N)Oc2c(sc3c(F)cccc23)C1c1ccc(F)cc1 (stereo not drawn); 0 (no)
CC(C)C[C@@H]1NC(=O)[C@@H]2CCCN2C(=O)[C@@H]2CCCN2C(=O)[C@H](CC(C)C)NC(=O)[C@H](CO)NC(=O)[C@H](CCCCN)NC(=O)[C@H]([C@H](C)O)NC(=O)[C@@H]2CCCC[C@@H](NC1=O)C(=O)N[C@@H](Cc1ccccc1)C(=O)N1CCC[C@H]1C(=O)N[C@@H](CC(=O)O)C(=O)NCC(=O)N[C@@H](CCCN=C(N)N)C(=O)N2; 0 (no)
Clc1ccc2c(c1)-c1ccccc1C1=NCCN12; 0 (no)

Check the results log: what was the call for COc1cc([N+](=O)[O-])c(OC)cc1-c1nc2sc(Cl)cn2c1/C=N/NC(=N)N/N=C/c1c(-c2cc(OC)c([N+](=O)[O-])cc2OC)nc2sc(Cl)cn12 ?
0 (no)

----------
Test system: HOP-92 NSCLC
Assay: NCI tumour cell line growth inhibition, 48 h
Quick list: TGI per entry.

CC(C)(C)[Si](C)(C)OCC#C[C@@]1(O)CCCCC1CC(Sc1ccccc1)Sc1ccccc1 (stereo partly specified); 37.4 µM
[C-]#[N+]C1(C(=O)OCC)CC1; > 100 µM
Clc1ccccc1-c1nnc2c(-c3ccccc3)nc3ccccc3n12; > 100 µM
COc1cc(C(=O)CC2(O)C(=O)Nc3c(Cl)cc(Cl)cc32)ccc1O (stereo unspecified); > 100 µM
ClCc1ccc2ccc3ccc(CCl)nc3c2n1; 3.63 µM

Next:
Quick check: TGI of S=C(Nc1ccccc1)N(Cc1ccccc1)c1ccccc1 ?
> 100 µM

----------
System: OVCAR-8 ovarian
Assay: NCI tumour cell line growth inhibition, 48 h
result-type: TGI

Nc1ncc(CN2CCOCC2)c(-c2ccccc2O)n1; > 100 µM
COC(=O)CC1(O)C(/C=C/c2ccccc2)C(C(=O)OC)C(=O)C(C(=O)OC)C1C(=O)OC (stereo unspecified); > 100 µM
CC1=NN(C(=O)c2ccc(Cl)cc2)C(=O)/C1=C/c1ccc(O)cc1; > 100 µM
COc1ccc2c(c1)CCCN1Cc3ccccc3CC21 (stereo unspecified); > 100 µM
CN(C)c1ccc(N=Nc2cccc3ncccc23)cc1; > 100 µM

Next:
Quick check: TGI of COC(=O)[C@@H](C)C[C@H](Cc1ccccc1)NC(=O)c1csc([C@@H](C[C@H](C(C)C)N(C)C(=O)C2(NC(=O)[C@H]3CCCCN3C)CC2)OC(C)=O)n1 ?
> 33.3 µM

----------
Tested on: OVCAR-4 ovarian
Assay: NCI tumour cell line growth inhibition, 48 h
Quick list: TGI per entry.

# example entries with known answers
COC(=O)CCC(C)C1CCC2C3CCC4CC5CCC4(C)C3(O5)C(Br)C(Br)C12C (stereo not drawn); > 100 µM
CC(C)CCCC(C)[C@H]1CC[C@H]2[C@@H]3CC[C@H]4C[C@@H](CCC=C(c5cc(Cl)c(O)c(C(=O)O)c5)c5cc(Cl)c(O)c(C(=O)O)c5)CC[C@]4(C)[C@H]3CC[C@]12C (stereo partly drawn) (tested in a mixture with another compound); > 50 µM

Next:
Quick check: TGI of CN(C)c1ccc(O)c2c1C[C@H]1C[C@H]3[C@H](N(C)C)C(=O)C(C(N)=O)=C(O)[C@@]3(O)C(=O)C1=C2O ?
> 100 µM

----------
Test system: UACC-257 melanoma
Assay: NCI tumour cell line growth inhibition, 48 h
Quick list: TGI per entry.
Number in µM, nothing else.

O=C(/C=C/c1ccc(C(F)(F)F)cc1)c1ccc(Nc2nc(NCCO)nc(N3CCOCC3)n2)cc1; 17.8

Quick check: TGI of C=C1CC[C@@H]2[C@](C)(COC(C)=O)[C@H](OC(C)=O)CC[C@@]2(C)[C@@H]1C/C=C1/C(=O)OC[C@H]1OC(C)=O ?
19.9

----------
Quick list: TGI per entry.
Test system: MOLT-4 leukemia
Experiment: NCI tumour cell line growth inhibition, 48 h

# example entries with known answers
COc1ccc(NS(=O)c2ccc(OC)cc2)cc1 (configuration not stated); > 100 µM
O=[N+]([O-])c1ccc(NC(=S)Nc2ccccn2)cc1; > 100 µM
CC(=O)c1c[nH]cc1CO; > 10 µM

Quick check: TGI of O=C(NCCN1CCCC1)c1cn2c(ccc3sc4ccccc4c(=O)c32)n1 ?
7.42 µM

How about [O-]c1c[n+](CC[n+]2cc([O-])on2)no1 ?
> 100 µM

How about c1ccc(SC(CCCCOC2CCCCO2)Sc2ccccc2)cc1 (configuration not stated) ?
> 100 µM

How about CCOC1C=CCCO1 (configuration not stated) ?
> 100 µM

How about CC(C)(c1ccc(OC#N)cc1)c1ccc(OC#N)cc1 ?
> 100 µM

How about O=C(OC(/C=C/c1ccccc1)P1(=O)N(Cc2ccccc2)[C@@H]2CCCC[C@H]2N1Cc1ccccc1)c1ccccc1 (some centres not stated) ?
6.47 µM

How about OC(CNc1ccnc2cc(Cl)ccc12)CNC1CCCCC1 (configuration not stated) ?
31.9 µM

How about N=C(N)c1ccc(-c2ccc(-c3cccs3)s2)nc1 ?
4.13 µM

How about O=C(CN1CCOCC1)Nc1ccc2c(c1)C1Oc3ccccc3CC1CO2 (configuration not stated) ?
> 100 µM

----------
Values of GI50 reported for NCI-H460 lung appear below.

# example entries with known answers
N#CC1=C(N)Oc2c(sc3c(F)cccc23)C1c1ccc(F)cc1 (configuration not stated); 415 nM
Oc1ccc(N=Nc2ccc(N=Nc3ccccc3)cc2)cc1; 1970 nM

Quick check: GI50 of C=CC(=O)Nc1cccc(C)c1Nc1ncc2cc(-c3c(Cl)c(OC)cc(OC)c3Cl)ccc2n1 ?
1640 nM

How about NCCCCN(Cc1nc2ccccc2[nH]1)[C@H]1CCCc2cccnc21 ?
7470 nM

How about OC(CNc1ccnc2cc(Cl)ccc12)CNC1CCCCC1 (configuration not stated) ?
13800 nM

How about COC(=O)c1cc2oc(/C=C3\SC(=S)N(NC(C)=O)C3=O)cc2n1Cc1ccccc1 ?
1280 nM

How about CC1=C(C(=O)Nc2ccc(F)c(Cl)c2)C(c2cccc(Oc3ccccc3)c2)NC(=O)N1 (configuration not stated) ?
15700 nM
